Sourced from the supplement of paper PMC9950053

# Test system: Danio rerio larvae (5 dpf)
# Experimental Details: combined optomotor response (time in upper well half, down vs up moving lines, periods 7-14) minus DMSO control (percentage points); higher = stronger optomotor response than DMSO larvae
# Reported Conditions: 10 µM; exposure time: 3 h pre-incubation + 3 h imaging
Structures can show the parent of a compound that is named as a salt.
Can you tell me combined optomotor response for the items I'm about to list?
Numbers only.

Molecule	Quantitative Readout
Nc1nc2[nH]cc(CCc3ccc(C(=O)N[C@@H](CCC(=O)O)C(=O)O)cc3)c2c(=O)[nH]1 [Pemetrexed]	1.31
OCCOCCN1CCN(C2=Nc3ccccc3Sc3ccccc32)CC1 [Quetiapine hemifumarate]	8.62
CC/C(=C(\c1ccccc1)c1ccc(OCCN(C)C)cc1)c1ccccc1 [Tamoxifen citrate]	-10.7
CNC(=O)c1ccccc1Sc1ccc2c(/C=C/c3ccccn3)n[nH]c2c1 [Axitinib]	3.98
Cn1cnc([N+](=O)[O-])c1Sc1ncnc2[nH]cnc12 [Azathioprine]	2.29
CC1CNc2c(cccc2S(=O)(=O)N[C@@H](CCCNC(=N)N)C(=O)N2CC[C@@H](C)C[C@@H]2C(=O)O)C1 (stereo partly specified) [Argatroban]	3.86

For every item in the list below, what is its measured combined optomotor response?
1. CC(C)C(=O)Nc1ccc([N+](=O)[O-])c(C(F)(F)F)c1 [Flutamide]
2. CCOc1nc2cccc(C(=O)O)c2n1Cc1ccc(-c2ccccc2-c2nnn[nH]2)cc1 [Candesartan]
3. Cc1cn([C@H]2C=C[C@@H](CO)O2)c(=O)[nH]c1=O [Stavudine]
4. CN(CCOc1ccc(CC2SC(=O)NC2=O)cc1)c1ccccn1 (stereo unspecified) [Rosiglitazone]
5. Cc1ccc(O)c([C@H](CCN(C(C)C)C(C)C)c2ccccc2)c1 [Tolterodine L-tartrate]

1. -12.4
2. 7.2
3. 7.54
4. 3.93
5. -1.96

----------
What 1-h baseline activity was measured for each of the following?
# Test system: Danio rerio larvae (5 dpf)
# Experimental Details: 1-h baseline activity (% time moving, periods 1-6) minus DMSO control (percentage points); higher = more locomotor activity than DMSO larvae
# Reported Conditions: 10 µM; exposure time: 3 h pre-incubation + 3 h imaging
Counter-ions that a name gives are not always drawn.
Give bare numbers.

Would you please look over these solved cases?
Compound	System	1-h baseline activity
CCCCC(=O)N(Cc1ccc(-c2ccccc2-c2nnn[nH]2)cc1)[C@H](C(=O)O)C(C)C	Danio rerio larvae (5 dpf)	3.3
CS(=O)(=O)CCNCc1ccc(-c2ccc3ncnc(Nc4ccc(OCc5cccc(F)c5)c(Cl)c4)c3c2)o1	Danio rerio larvae (5 dpf)	-5.01

Go through the items and report each one's 1-h baseline activity.
1. O=C(c1ccc(OCCN2CCCCC2)cc1)c1c(-c2ccc(O)cc2)sc2cc(O)ccc12 [Raloxifene hydrochloride]
2. CC1CNc2c(cccc2S(=O)(=O)N[C@@H](CCCNC(=N)N)C(=O)N2CC[C@@H](C)C[C@@H]2C(=O)O)C1 (stereo partly drawn)
3. CCCc1nc2c(C)cc(-c3nc4ccccc4n3C)cc2n1Cc1ccc(-c2ccccc2C(=O)O)cc1
4. CCOC(=O)[C@H](CCc1ccccc1)N[C@H]1CCc2ccccc2N(CC(=O)O)C1=O [Benazepril hydrochloride]
5. CC(c1cc2ccccc2s1)N(O)C(N)=O (stereo not drawn)
6. O=C(O)c1cc(/N=N/c2ccc(S(=O)(=O)Nc3ccccn3)cc2)ccc1O
7. Cc1ccc(-c2cc(C(F)(F)F)nn2-c2ccc(S(N)(=O)=O)cc2)cc1

1: -7.31; 2: 3.52; 3: -7.8; 4: 0.149; 5: -1.65; 6: 12.5; 7: -5.62

----------
# Tested on: Danio rerio larvae (5 dpf)
# Experimental Details: excitability (activity period 17 minus period 16, 1-s interval sound) minus DMSO control (percentage points); higher = more acoustic excitability than DMSO larvae
# Reported Conditions: 10 µM; exposure time: 3 h pre-incubation + 3 h imaging
Where excitability equals or exceeds 4, the correct label is 1; where it does not, the label is 0.

Assess whether reported excitability for CC(C)(C(=O)c1cccnc1)c1cccnc1 sits at 4 or higher.
1

----------
# Test system: Danio rerio larvae (5 dpf)
# Experimental Details: 1-h baseline activity (% time moving, periods 1-6) minus DMSO control (percentage points); higher = more locomotor activity than DMSO larvae
# Reported Conditions: 10 µM; exposure time: 3 h pre-incubation + 3 h imaging
Where a name gives a salt, the structure may show the parent alone.
Measured Quantity: 1-h baseline activity

Compound	System	Measured Quantity	Result
COc1cc2ncnc(Nc3ccc(F)c(Cl)c3)c2cc1OCCCN1CCOCC1 [Iressa]	Danio rerio larvae (5 dpf)	1-h baseline activity	-6.95
Cc1nc(-c2ccc(OCC(C)C)c(C#N)c2)sc1C(=O)O [Febuxostat]	Danio rerio larvae (5 dpf)	1-h baseline activity	-2.75
O=c1[nH]c(=O)n([C@H]2C[C@H](O)[C@@H](CO)O2)cc1C(F)(F)F [Trifluorothymidine]	Danio rerio larvae (5 dpf)	1-h baseline activity	0.518
CCC(=O)O[C@]1(C(=O)SCF)[C@H](C)C[C@H]2[C@@H]3C[C@H](F)C4=CC(=O)C=C[C@]4(C)[C@@]3(F)[C@@H](O)C[C@@]21C [Fluticasone propionate]	Danio rerio larvae (5 dpf)	1-h baseline activity	6.52

Hi, could you look up 1-h baseline activity for each item in my list?
1. CC(C)n1c(/C=C/C(O)CC(O)CC(=O)O)c(-c2ccc(F)cc2)c2ccccc21 (configuration not stated) [Fluvastatin sodium]
2. CN(C)CC/C=C1/c2ccccc2COc2ccc(CC(=O)O)cc21 [Olopatadine hydrochloride]
3. CC(C)C(=O)OCC(=O)[C@@]12O[C@H](C3CCCCC3)O[C@@H]1C[C@H]1[C@@H]3CCC4=CC(=O)C=C[C@]4(C)[C@H]3[C@@H](O)C[C@@]12C [Ciclesonide]

1: -0.765; 2: -0.564; 3: -10.2

----------
# Test system: Danio rerio larvae (5 dpf)
# Experimental Details: combined upward orientation toward moving lines (periods 7-14) minus DMSO control (percentage points); higher = more orientation with moving lines than DMSO larvae
# Reported Conditions: 10 µM; exposure time: 3 h pre-incubation + 3 h imaging
Structures can show the parent of a compound that is named as a salt.
Kindly supply the reported combined upward orientation toward moving lines values for the records listed here.

Please report combined upward orientation toward moving lines for every entry that follows.
1. CC(=O)O[C@H]1C(=O)[C@@]2(C)[C@H]([C@H](OC(=O)c3ccccc3)[C@]3(O)C[C@H](OC(=O)[C@H](O)[C@@H](NC(=O)c4ccccc4)c4ccccc4)C(C)=C1C3(C)C)[C@]1(OC(C)=O)CO[C@@H]1C[C@@H]2O
2. Clc1ccc(COC(Cn2ccnc2)c2ccc(Cl)cc2Cl)c(Cl)c1 (configuration not stated) [Miconazole nitrate]
3. Cn1nnc2c(C(N)=O)ncn2c1=O [Temozolomide]
4. N[C@@H]1[C@H]2CN(c3nc4c(cc3F)c(=O)c(C(=O)O)cn4-c3ccc(F)cc3F)C[C@@H]12 [Trovafloxacin mesylate]

-6.91
-3.31
-6.36
-3.7

----------
Exercise: state measured combined optomotor response for each of the compounds provided.
# Tested on: Danio rerio larvae (5 dpf)
# Experimental Details: combined optomotor response (time in upper well half, down vs up moving lines, periods 7-14) minus DMSO control (percentage points); higher = stronger optomotor response than DMSO larvae
# Reported Conditions: 10 µM; exposure time: 3 h pre-incubation + 3 h imaging
Counter-ions that a name gives are not always drawn.

Required: combined optomotor response, one value per compound below.
1. Nc1nc(NC2CC2)c2ncn([C@H]3C=C[C@@H](CO)C3)c2n1 [Abacavir hemisulfate]
2. COc1ccc([C@@H]2Sc3ccccc3N(CCN(C)C)C(=O)[C@@H]2OC(C)=O)cc1 [Diltiazem hydrochloride]
3. CC(C)(C)NC(=O)[C@@H]1C[C@@H]2CCCC[C@@H]2CN1C[C@@H](O)[C@H](Cc1ccccc1)NC(=O)[C@H](CC(N)=O)NC(=O)c1ccc2ccccc2n1 [Saquinavir mesylate]
4. CCCCC(=O)N(Cc1ccc(-c2ccccc2-c2nnn[nH]2)cc1)[C@H](C(=O)O)C(C)C [Valsartan]
5. C#C[C@]1(O)CC[C@H]2[C@@H]3CCC4=CC(=O)CC[C@@H]4[C@H]3CC[C@@]21CC [Levonorgestrel]
6. NC(=O)N1c2ccccc2C=Cc2ccccc21 [Carbamazepine]

1. 4.25
2. 1.37
3. -2.96
4. 7.07
5. 6.62
6. 6.15

State its combined optomotor response on Danio rerio larvae (5 dpf): CCCc1nc2c(C)cc(-c3nc4ccccc4n3C)cc2n1Cc1ccc(-c2ccccc2C(=O)O)cc1 [Telmisartan]
2.86

----------
# Tested on: Danio rerio larvae (5 dpf)
# Experimental Details: startle (activity period 16 minus period 15, 20-s interval sound) minus DMSO control (percentage points); higher = stronger startle response than DMSO larvae
# Reported Conditions: 10 µM; exposure time: 3 h pre-incubation + 3 h imaging
Measured Quantity: startle
Give bare numbers.

Compound	startle
COc1cc2ncnc(Nc3ccc(F)c(Cl)c3)c2cc1OCCCN1CCOCC1	-1.42
NC(=O)N1c2ccccc2C=Cc2ccccc21 [Carbamazepine]	3.47

Batch request: startle for each of the following compounds.
1. O=C1CCc2cc(OCCCCc3nnnn3C3CCCCC3)ccc2N1
2. CO[C@H]1/C=C/O[C@@]2(C)Oc3c(C)c(O)c4c(O)c(c5c(nc6cc(C)ccn65)c4c3C2=O)NC(=O)/C(C)=C\C=C\[C@H](C)[C@H](O)[C@@H](C)[C@@H](O)[C@@H](C)[C@H](OC(C)=O)[C@@H]1C
3. CC(c1cc2ccccc2s1)N(O)C(N)=O (stereo not given)

1: 1.37; 2: 1.18; 3: -0.862
